Assay: MTS assay of non-cancerous cells
Assay type: cell-based, human
Settings: human, HaCAT cells (immortalized human keratinocytes), 72h; 16 nM; read-out: Cell viability (Sup Fig.4b, 72h)
measured property: viability at 72 h, 0.016 µM (%)

Cc1nnn(C)c1-c1cnc2c3c4cnn(C)c4ccc3n([C@H](c3ccccc3)C3CCOCC3)c2c1 :: 90.2

---

Test: MTS assay of non-cancerous cells
Type: cell-based, human
Details: human, HaCAT cells (immortalized human keratinocytes), 24h; 500 nM; read-out: Cell viability (Sup Fig.4a)
measured property: viability at 24 h, 0.5 µM (%)

Cc1nnn(C)c1-c1cnc2c3c4cnn(C)c4ccc3n([C@H](c3ccccc3)C3CCOCC3)c2c1 :: 100
